- ASSAY: qHTS for Inhibitors of human tyrosyl-DNA phosphodiesterase 1 (TDP1): qHTS in cells in presence of CPT; also: nearly all actives have a fitted effect of over 55% in size
- MEASUREMENT CONDITIONS: chicken DT40 Tdp1-/-;hTDP1 cells + 20 nM CPT, ATP luminescence, 48 h; series mostly up to 46.2 µM
- Method: Human tyrosyl-DNA phosphodiesterase 1 (TDP1) is a novel repair gene, and we propose to use it as a new target for anticancer drug development. […] For the primary screen, Tdp1-/-;hTDP1 cells will be exposed to small molecules in the presence or absence of CPT, and their growth kinetics will be evaluated after 48 hours by measuring ATP activity. […] The hit compounds will then be evaluated in the presence or absence of CPT using Tdp1-/- cells. […]
Among all 420,000 compounds or so, about 50,000 (12%) were called active. About 26% were inconclusive and are not listed. Calls follow the shape of the dose curve; as a rule, active = well fitted inhibition curve with a large enough effect; inconclusive = small, poorly fitted or top-dose-only effect; inactive = flat fitted curve, though single readings scatter. The list comes from a sample in which actives are over-represented; it also holds close analogues and randomly drawn compounds.
Outcome codes: T (active), F (inactive)

>>> assigned_label("c1ccc(-c2cc(-c3nnc4sc(-c5ccccn5)nn34)[nH]n2)cc1")
"T"
>>> assigned_label("CCN1C[C@@H]2[C@@H]3C(=O)N(Cc4ccccc4)C(=O)[C@@H]3[C@](C)(C1=O)N2C(=O)c1ccc(C(C)(C)C)cc1")
"F"
>>> assigned_label("COc1ccc([C@H]2N[C@]3(CCCN(Cc4ccco4)C3=O)[C@H]3C(=O)N(C)C(=O)[C@@H]23)cc1")
"F"
>>> assigned_label("CC(OC(=O)CN1C(=O)COc2ccccc21)C(=O)NCc1ccc(F)cc1 (centres undefined)")
"F"
>>> assigned_label("CCOc1cccc(-c2nn3c(-c4ccccn4)nnc3s2)c1")
"F"
>>> assigned_label("CCN1C(=O)[C@H]2[C@@H](c3ccc(C(F)(F)F)cc3)N[C@]3(CCCN(Cc4ccc(Br)cc4)C3=O)[C@H]2C1=O")
"T"
>>> assigned_label("CN(C(=O)c1ccccn1)c1nnc(-c2ccccn2)s1")
"F"
>>> assigned_label("O=C1[C@H]2[C@@H](c3ccc(C(F)(F)F)cc3)N[C@]3(CCCN(Cc4ccc(Cl)cc4)C3=O)[C@H]2C(=O)N1Cc1ccccc1")
"T"
>>> assigned_label("Clc1ccccc1CSc1nncn2c1cc1occc12")
"F"

====

- ASSAY: qHTS for Inhibitors of human tyrosyl-DNA phosphodiesterase 1 (TDP1): qHTS in cells in presence of CPT; also: nearly all actives have a fitted effect of over 55% in size; also: potency is read from the fitted curve at half-maximal effect
- MEASUREMENT CONDITIONS: chicken DT40 Tdp1-/-;hTDP1 cells + 20 nM CPT, ATP luminescence, 48 h; series mostly up to 46.2 µM
In all, about 420,000 compounds went through this assay and about 50,000 (12%) were called active. Another 26% or so got no clear call; they are omitted. Only a selection was taken, and actives are over-represented in it overall.
OBSERVABLE: Potency

>>> recorded_value("CCCn1nc(NC(=O)C(C)C)c2cc3cc(OC)ccc3nc21")
"29.1 µM (active)"
>>> recorded_value("CCc1nnc(SCc2nc(-c3cccc(C)c3)oc2C)c2cc3sc(C)cc3n12")
"inactive"
>>> recorded_value("CCCn1nc(NS(=O)(=O)c2ccccc2)c2cc3cc(C)ccc3nc21")
"inactive"
>>> recorded_value("CCCn1nc(NS(=O)(=O)c2ccc(F)cc2)c2cc3ccccc3nc21")
"inactive"
>>> recorded_value("CC(C)c1ccc(Cn2c(COc3ccccc3)nc3ccccc32)cc1")
"18.4 µM (active)"
>>> recorded_value("CC(=O)c1nnn(-c2ccc(Cl)cc2C#N)c1C")
"inactive"

====

- ASSAY: qHTS for Inhibitors of human tyrosyl-DNA phosphodiesterase 1 (TDP1): qHTS in cells in presence of CPT; also: nearly all actives have a fitted effect of over 55% in size
- MEASUREMENT CONDITIONS: chicken DT40 Tdp1-/-;hTDP1 cells + 20 nM CPT, ATP luminescence, 48 h; series mostly up to 46.2 µM
Hit rate of the full screen: of about 420,000 compounds, about 50,000 (12%) were called active. Not shown: some 26% with an inconclusive outcome. Calls follow the shape of the dose curve; as a rule, active = well fitted inhibition curve with a large enough effect; inconclusive = small, poorly fitted or top-dose-only effect; inactive = flat fitted curve, though single readings scatter. The entries come from a sample that favours actives as a whole.
Outcome codes: t (active), f (inactive)

>>> assigned_label("CCOc1ccccc1-c1cc(C(=O)N2CCOCC2)c2ccccc2n1")
"f"
>>> assigned_label("COc1ccc(-c2nc3cc(C)ccn3c2NC2CCCCC2)cc1SC1CCCCC1")
"t"
>>> assigned_label("CCCCn1c(N)c(N(CC(C)C)C(=O)CN(C)S(=O)(=O)c2ccc(F)cc2)c(=O)[nH]c1=O")
"f"
>>> assigned_label("CC(OC(=O)CCC(=O)c1ccccc1)C(=O)Nc1ccc(F)cc1 (stereo unspecified)")
"f"
>>> assigned_label("COc1ccc(C)cc1S(=O)(=O)NC1CCCCC1")
"f"
>>> assigned_label("O=C(O)CCCCOn1ccnc1")
"f"
>>> assigned_label("CN1OC[C@@H]2CN(C(=O)c3cccnc3)[C@H](c3ccc(N4CCCCC4)cc3)C[C@@H]21")
"f"
>>> assigned_label("CCOc1cccc(/C=C/c2ccc3ccccc3n2)c1OC(C)=O")
"t"
>>> assigned_label("Cc1cc(NS(=O)(=O)c2ccc(NC(=O)c3ccccc3C)cc2)nc(C)n1")
"f"
>>> assigned_label("CC(NC(=O)c1ccccc1SCC(=O)N1CCCC1)c1ccccc1 (stereo unspecified)")
"f"
>>> assigned_label("CC(NC(=O)c1cc(Sc2ccc(F)cc2F)nc2ccccc12)c1ccccc1 (stereo unspecified)")
"t"

====

- ASSAY: qHTS for Inhibitors of human tyrosyl-DNA phosphodiesterase 1 (TDP1): qHTS in cells in presence of CPT; also: nearly all actives have a fitted effect of over 55% in size
- MEASUREMENT CONDITIONS: chicken DT40 Tdp1-/-;hTDP1 cells + 20 nM CPT, ATP luminescence, 48 h; series mostly up to 46.2 µM
Screen size: about 420,000 compounds; about 50,000 (12%) were called active. Inconclusive results (about 26%) are left out. The call rests on the fitted dose curve; in most records, active means well fitted inhibition curve with a large enough effect; inconclusive means small, poorly fitted or top-dose-only effect; inactive means flat fitted curve, though single readings scatter. Shown is part of a subset that was picked to be rich in actives.
Outcome codes: active, inactive

>>> assigned_label("O=C(O)CSCc1ccc(C(=O)O)o1")
"inactive"
>>> assigned_label("Cc1sc2nc(SCC(N)=O)n(C)c(=O)c2c1C")
"inactive"
>>> assigned_label("COc1ccc(-c2cc(=O)oc3cc(OCC(=O)N[C@@H](Cc4c[nH]c5ccccc45)C(=O)O)ccc23)cc1")
"inactive"
>>> assigned_label("CCNC(=O)c1ccc(OCC(=O)Nc2ccc(F)cc2)c(OC)c1")
"inactive"
>>> assigned_label("O=S(=O)(Cc1cc(Sc2ccccc2)nc(-c2ccccc2)n1)c1ccccc1")
"active"
>>> assigned_label("O=[N+]([O-])c1cccc(S(=O)(=O)NCc2ccccn2)c1")
"inactive"
>>> assigned_label("CCc1ccc[n+](-c2nc([O-])sc2C=O)c1")
"inactive"
>>> assigned_label("CCc1cc2c(=O)n(-c3ccccc3)c(SCC(=O)O)nc2s1")
"inactive"
>>> assigned_label("COc1ccccc1CNC(=O)[C@@H]1CCCN1C(=O)[C@@H]1Cc2ccccc2CN1C(=O)OC(C)(C)C")
"active"
>>> assigned_label("COc1ccc(/C=N/NC(=O)c2ccc3c(c2)OCCO3)c(OC)c1")
"inactive"
>>> assigned_label("CCN1C(=O)C(=O)N(CC(=O)Nc2cc(C)ccc2C)C1=O")
"inactive"
>>> assigned_label("COc1cc(CN2CCNC(=O)C2CC(=O)NCCc2ncccc2C)cc(OC)c1 (configuration not stated)")
"inactive"
>>> assigned_label("C[C@H](NC(=O)C1CC(=O)N(c2ccc3c(c2)OCO3)C1)C(=O)NCc1ccco1 (some centres not stated)")
"inactive"
>>> assigned_label("Cc1cccc(C)c1-n1c(C)cc(/C=C2\\C(=O)NN(c3ccccc3)C2=O)c1C")
"inactive"
>>> assigned_label("COc1ccc(C(=O)N/N=C2\\CCS(=O)(=O)c3ccc(F)cc32)cc1OC")
"active"
>>> assigned_label("CCOc1ccc2oc(C(=O)N(CC)CC(=O)Nc3ccc(NC(C)=O)cc3)c(C)c2c1")
"inactive"
>>> assigned_label("CCOC(=O)CSc1nc2c(c(=O)n(Cc3ccccc3Cl)c(=O)n2C)n1C")
"inactive"
>>> assigned_label("COc1ccc(S(=O)(=O)NCC(=O)NCc2cc(=O)n(C)c(=O)n2C)cc1F")
"inactive"
>>> assigned_label("COc1ccccc1CNC(=O)C1Cc2ccccc2C(=O)O1 (configuration not stated)")
"inactive"
>>> assigned_label("Nc1cc(N2CCCCCC2)c2nonc2c1[N+](=O)[O-]")
"inactive"
>>> assigned_label("O=S(=O)(Cc1nnnn1-c1ccccc1)c1ccccc1")
"inactive"
>>> assigned_label("O=C(NCc1ccco1)c1ccc([N+](=O)[O-])cc1Cl")
"inactive"

====

- ASSAY: qHTS for Inhibitors of human tyrosyl-DNA phosphodiesterase 1 (TDP1): qHTS in cells in presence of CPT; also: nearly all actives have a fitted effect of over 55% in size
- MEASUREMENT CONDITIONS: chicken DT40 Tdp1-/-;hTDP1 cells + 20 nM CPT, ATP luminescence, 48 h; series mostly up to 46.2 µM
Out of some 420,000 compounds screened, about 50,000 (12%) were called active. Roughly 26% stayed inconclusive and do not appear here. Calls follow the shape of the dose curve; as a rule, active = well fitted inhibition curve with a large enough effect; inconclusive = small, poorly fitted or top-dose-only effect; inactive = flat fitted curve, though single readings scatter. The sample as a whole holds a higher share of actives than the screen did.
Outcome codes: active, inactive

>>> assigned_label("NS(=O)(=O)c1ccc(Nc2nc(-c3ccccc3)cs2)cc1")
"inactive"
>>> assigned_label("O=C(O)C(=Cc1ccc([N+](=O)[O-])cc1)CCc1ccccc1")
"inactive"
>>> assigned_label("OCC[C@H]1C[C@H](O)[C@@H](O)[C@]2(CCc3ccccc3O2)O1")
"inactive"
>>> assigned_label("O=C(NCc1ccc2c(c1)OCO2)c1c(-c2ccsc2)sc2ccccc12")
"active"
>>> assigned_label("Cc1ccn2c(Nc3ccc4c(c3)OCCO4)c(-c3ccc(C)s3)nc2c1")
"inactive"
>>> assigned_label("CSc1ccccc1NC(=O)c1cc(Cl)sc1Cl")
"inactive"
>>> assigned_label("COc1ccc(S(=O)(=O)Nc2ccc(S(=O)(=O)N3CCCCC3)cc2)cc1OC")
"inactive"
>>> assigned_label("CCOC(=O)c1cnc(SC)nc1Sc1ccc(Cl)cc1Cl")
"inactive"
>>> assigned_label("CC(=O)c1cccc(-c2ccc(CN3C(CC(C)C)C(=O)N(Cc4cn(CC5CCCCC5)nn4)CCS3(=O)=O)cc2)c1 (stereo unspecified)")
"active"
>>> assigned_label("CC1(c2ccccc2)NC(=O)N(CC(=O)N2CC(=O)Nc3ccccc32)C1=O (stereo unspecified)")
"inactive"
>>> assigned_label("CCOc1ccc2nc(N3CCCC(C(=O)Nc4cc(C)ccc4C)C3)sc2c1 (stereo unspecified)")
"active"
>>> assigned_label("CCOc1ccccc1N(CC(=O)Nc1ccccc1C(=O)OC)S(C)(=O)=O")
"inactive"
>>> assigned_label("Cc1ccc(C)c(NC(=O)C2CCCN(S(=O)(=O)c3cn(C)cn3)C2)c1 (stereo unspecified)")
"inactive"
>>> assigned_label("CCn1cc(/C=C(\\NC(=O)c2ccc(C)cc2)C(=O)NCCN2CCOCC2)c2ccccc21")
"inactive"
>>> assigned_label("CC(=O)c1cccc(-n2nnnc2SCC(=O)NNC(=O)C2CCCCC2)c1")
"inactive"
>>> assigned_label("CC(=O)Nc1ccc(NC(=O)CCN2C(=O)C3CC=CCC3C2=O)cc1 (stereo unspecified)")
"inactive"
>>> assigned_label("CC[n+]1c(C)n(-c2ccccc2)c2ccc(NC(C)=O)cc21")
"active"
>>> assigned_label("O=C1NC[C@H](CCCCN2CCN(CCc3ccccc3)C(=O)C2=O)N(CC2CCCCC2)C1=O")
"inactive"
>>> assigned_label("Cc1ccc(NS(=O)(=O)c2ccc(F)cc2)nc1")
"inactive"
>>> assigned_label("Cc1cc(C)n(CCNC(=O)CC2C(=O)NCCN2Cc2ccc(C)o2)n1 (stereo unspecified)")
"inactive"
>>> assigned_label("CC(=O)c1nn(-c2ccc(C)cc2)cc1C(=O)c1cccc(Br)c1")
"inactive"
>>> assigned_label("CCn1c2ccccc2c2cc(NC(=O)CNC)ccc21")
"inactive"
>>> assigned_label("Cc1cc(F)ccc1NS(=O)(=O)c1ccc(-n2cccn2)cc1")
"active"
>>> assigned_label("CCc1nc2ccc(C(=O)N3CCN(S(=O)(=O)CC)CC3)cn2c1N(C=O)CCC(C)C")
"inactive"
>>> assigned_label("O=S(=O)(c1ccc(Br)cc1)c1nc(-c2ccccc2)oc1N1CCOCC1")
"inactive"
>>> assigned_label("O=C(Nc1nnc(Cc2ccccc2)s1)c1cnccn1")
"inactive"
>>> assigned_label("N#Cc1cc([N+](=O)[O-])ccc1NC(=O)COC(=O)c1cnccn1")
"inactive"
>>> assigned_label("CCc1cc2cc(OC)ccc2nc1SCC(=O)Nc1cc(OC)c(OC)cc1C(=O)O")
"inactive"
>>> assigned_label("CCCCn1c(N)c(N2CCOCC2)c(=O)n(CC(=O)NCCc2ccccc2)c1=O")
"inactive"
>>> assigned_label("COc1cc(NS(=O)(=O)c2ccc(NC(=O)c3ccc(S(=O)(=O)N4CCCCC4)cc3)cc2)ncn1")
"inactive"
>>> assigned_label("COc1ccc(-c2ccc(CN3C(CC(C)C)C(=O)N(Cc4cn(CC5CCCCC5)nn4)CCS3(=O)=O)cc2)cn1 (stereo unspecified)")
"active"
>>> assigned_label("CC(=O)c1ccc(N2CCN(c3nc4c(S(=O)(=O)c5ccccc5)nnn4c4ccc(Cl)cc34)CC2)cc1")
"inactive"
>>> assigned_label("O=Cc1c(Cl)cccc1Cl")
"inactive"
>>> assigned_label("CCOc1ccc2nc(C(=O)N3CCCC(C)C3)sc2c1 (stereo unspecified)")
"inactive"
>>> assigned_label("COc1ccc(-c2nc(S(=O)(=O)c3ccccc3)c(N3CCCCC3)o2)cc1")
"active"
>>> assigned_label("O=C1C2C3C=CC(C3)C2C(=O)N1c1ccc(S(=O)(=O)Nc2nccs2)cc1 (stereo unspecified)")
"inactive"
>>> assigned_label("CC(C)CC1C(=O)N(Cc2cn(Cc3ccco3)nn2)CCS(=O)(=O)N1Cc1ccc(-c2ccc(Cl)c(Cl)c2)cc1 (stereo unspecified)")
"active"
>>> assigned_label("Cc1cc(NC(=O)CCC(=O)N(Cc2ccccc2)C(C(=O)NC2CCCC2)c2ccc(C)o2)no1 (stereo unspecified)")
"inactive"
>>> assigned_label("COCOCCn1cc(CN2CCS(=O)(=O)N(Cc3ccc(-c4ccc(OC)cc4)cc3)C(CC(C)C)C2=O)nn1 (stereo unspecified)")
"active"
>>> assigned_label("CCCCN(C=O)c1c(CC)nc2c(OCCC3CCCCC3)cccn12")
"active"
>>> assigned_label("COC(=O)c1ccc(NC(=O)c2cccc3c2C(=O)N(C2CCCCC2)C3)cc1")
"inactive"
